Quick reference for inhibition at 10 µM among some molecules
# Tested on: 60 human cancer cell lines
# EXPERIMENTAL DETAILS: NCI one-dose assay against sixty NCI cancer cell lines
# Format: cell-based
# COND: BT-549 (Breast Cancer), 10 uM single dose, read-out: Growth inhibition %
ENDPOINT: inhibition at 10 µM (%)

# MOLECULE, ENDPOINT, ASSAY VALUE
measured = [
    ("O=C1Nc2ccc(F)cc2/C1=C\\c1ccc(OCC(=O)c2ccccc2)cc1 [Compound 6d]", "inhibition at 10 µM", 10.9),
    ("COc1ccc(C(=O)COc2ccc(C=C3C(=O)Nc4ccc(Cl)cc43)cc2)cc1 [Compound 6i]", "inhibition at 10 µM", 11.7),
    ("COc1ccc(C(=O)COc2ccc(C=C3C(=O)Nc4ccccc43)cc2)cc1 [Compound 6h]", "inhibition at 10 µM", 10.1),
    ("O=C1Nc2cc(Cl)ccc2C1=Cc1ccc(OCC(=O)c2ccc(Br)cc2)cc1 [Compound 6g]", "inhibition at 10 µM", 44.3),
    ("O=C1Nc2ccccc2C1=Cc1ccc(OCC(=O)c2ccc(Br)cc2)cc1 [Compound 6f]", "inhibition at 10 µM", 43.4),
]
